- methodNotes: Cytotoxicity against human MCF10A cells after 72 hrs by CyQuant cell proliferation assay
- Format: cell-based, MCF-10A
- runConditions: MCF10A cells
measuredQuantity: GI50 at 72 h (µM)
Record the value in µM, omitting the unit from your answer.

CN1CCCN(Cc2ccc(-c3ccc(CN4CCCN(C)CC4)cc3)cc2)CC1; 27

Moving on to another molecule below.
get_value(item= CN1CCCN(Cc2ccc(-c3ccc(CN4CCCN(C)CC4)cc3C#N)c(F)c2)CC1 , readout=GI50 at 72 h) returns 18

====

- methodNotes: Cytotoxicity against human MCF12A cells after 72 hrs by CyQuant cell proliferation assay
- Format: cell-based, MCF-12A
- runConditions: MCF12A cells
measuredQuantity: GI50 at 72 h (µM)
Record the value in µM, omitting the unit from your answer.

get_value(item= CN1CCCN(Cc2ccc(-c3ccc(CN4CCCN(C)CC4)cc3)cc2)CC1 , readout=GI50 at 72 h) returns 31

====

For Choline kinase alpha (Homo sapiens), measured Ka is reported for the entries below.
Record the value in M⁻¹ s⁻¹, omitting the unit from your answer.

Below, 5 compounds whose answers are already recorded.
CN1CCCN(Cc2ccc(-c3ccc(CN4CCCN(C)CC4)cc3C#N)cc2)CC1; 676000
CN1CCCN(Cc2ccc(-c3ccc(CN4CCCN(C)CC4)c(Cl)c3)cc2)CC1; 235000
CN1CCCN(Cc2ccc(-c3ccc(CN4CCCN(C)CC4)c(F)c3F)cc2)CC1; 718000
CN1CCCN(Cc2ccc(-c3ccc(CN4CCCN(C)CC4)cc3F)cc2)CC1; 93000
CN1CCCN(Cc2ccc(-c3ccc(CN4CCCN(C)CC4)cc3)cc2)CC1; 94000

get_value(item= CN1CCCN(Cc2ccc(-c3cc(F)c(CN4CCCN(C)CC4)c(F)c3)cc2)CC1 , readout=Ka) returns 125000

get_value(item= CN1CCCN(Cc2ccc(-c3ccc(CN4CCCN(C)CC4)cc3C#N)c(F)c2)CC1 , readout=Ka) returns 112000

====

- System: MDA-MB-468
- methodNotes: Cytotoxicity against human MDA-MB-468 cells after 72 hrs by MTT assay
- Type: functional, cell-based
- runConditions: MDA-MB-468, 72 h
measuredQuantity: pIC50
Recall that pIC50 is obtained by taking minus log10 of the concentration measured in molar.

get_value(item= CN(c1ccc(Cl)cc1)c1cc[n+](Cc2ccc(-c3ccc(C[n+]4ccc(N(C)c5ccc(Cl)cc5)c5ccccc54)cc3)cc2)c2ccccc12 [RSM-932A] , readout=pIC50) returns 5.62

====

- testedSystem: Choline kinase alpha (Homo sapiens, UniProt P35790)
Catalogue of pIC50 readings, one per entry.
Recall that pIC50 is obtained by taking minus log10 of the concentration measured in molar.

Below, 2 compounds whose answers are already recorded.
CN1CCNCC(Cc2ccc3ncccc3c2)C1 (stereo not given); 4.76
CN1CCCN(Cc2ccc3ccccc3c2)CC1; 5.59

Moving on to another compound below.
Lab note: compound CN1CCCN(Cc2ccc(-c3ccc(CN4CCCN(C)CC4)cc3C#N)cc2)CC1 tested on Choline kinase alpha (Homo sapiens, UniProt P35790); recorded pIC50 was 7.18

====

For Carbonic anhydrase 2 (Homo sapiens, UniProt P00918), measured pKd is reported for the entries below.
Recall that pKd is obtained by taking minus log10 of the concentration measured in molar.

CN1CCCN(Cc2ccc(CN)cc2)CC1; 3.31

Moving on to another compound below.
Lab note: compound Nc1cc(C(F)(F)F)ncn1 tested on Carbonic anhydrase 2 (Homo sapiens, UniProt P00918); recorded pKd was 3.17
